# TARGET_DESC: P2L-3Ta
# EXPERIMENT: competitive EIA against HRP-labeled 19P2 ligand (12-25); sentence prints 'P2L-1Ta' but stands in the P2L-3Ta passage and cites FIG. 7(b)
No end group written: not given here.
MEASURED_ENDPOINT: IC50 (nM)
Numeric only. Scale: nM

BINDER: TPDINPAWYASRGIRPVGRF-NH2 [Human 19P2 ligand (12-31)]
IC50 / nM: 7

The record that follows has no IC50 shown yet.
Sample SRAHQHSMETRTPDINPAWYTGRGIRPVGRF-NH2 [Rat 19P2 ligand (1-31)] — what was its IC50?
25
